- Test Target: Estrogen Receptor (ERα) in MCF-7 cells (Homo sapiens (Human))
- Sequence (P03372 whole entry): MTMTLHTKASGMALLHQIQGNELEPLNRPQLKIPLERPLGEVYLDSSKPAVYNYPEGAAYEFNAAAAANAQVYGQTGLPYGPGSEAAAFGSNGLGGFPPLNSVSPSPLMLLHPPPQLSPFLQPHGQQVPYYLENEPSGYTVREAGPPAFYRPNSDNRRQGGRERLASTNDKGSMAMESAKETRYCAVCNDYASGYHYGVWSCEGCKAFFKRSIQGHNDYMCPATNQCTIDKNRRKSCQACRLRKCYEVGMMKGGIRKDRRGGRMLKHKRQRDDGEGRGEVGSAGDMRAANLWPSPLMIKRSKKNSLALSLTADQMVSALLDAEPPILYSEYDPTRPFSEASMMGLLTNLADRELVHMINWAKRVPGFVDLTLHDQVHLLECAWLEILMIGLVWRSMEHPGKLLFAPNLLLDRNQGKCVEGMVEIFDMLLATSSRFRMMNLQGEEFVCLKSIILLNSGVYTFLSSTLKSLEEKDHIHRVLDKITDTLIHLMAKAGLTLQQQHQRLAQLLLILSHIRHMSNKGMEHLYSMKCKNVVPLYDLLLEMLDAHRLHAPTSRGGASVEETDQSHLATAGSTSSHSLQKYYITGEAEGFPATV
- Test Details: MCF-7 ER down-regulation assay (immuno-fluorescence)
Observable: pIC50
# reply with the number alone; pIC50 is -log10 of concentration in mol/L

Solved entries (count: 10):
{"columns": ["Molecule", "pIC50"],
 "data": [
  ["C[C@@H]1Cc2c(ccc3[nH]ncc23)[C@@H](c2ncc(OC3CN(CCCF)C3)cc2F)N1CC(F)(F)CO [Example 59]", 8.80],
  ["COc1cc(OC2CN(CCCF)C2)ccc1[C@@H]1c2ccc3[nH]ncc3c2C[C@@H](C)N1CC(F)F [Example 22]", 10.21],
  ["C[C@@H]1Cc2c(ccc3[nH]ncc23)[C@@H](c2c(F)cc(NC3CN(CCCF)C3)cc2F)N1CC(F)F [Example 49]", 10.12],
  ["CC1(C)Cc2c(ccc3[nH]ncc23)[C@@H](c2ccc(NC3CN(CCCF)C3)cn2)N1CC(F)F [Example 73]", 9.11],
  ["C[C@@H]1Cc2c(ccc3[nH]nc(F)c23)[C@@H](c2ccc(NC3CN(CCCF)C3)cn2)N1CC(F)(F)CO [Example 61]", 9.89],
  ["C[C@@H]1Cc2c(ccc3[nH]ncc23)[C@@H](c2ccc(OC3CN(CCCF)C3)cn2)N1CC(F)F [Example 26]", 9.28],
  ["C[C@@H]1Cc2c(ccc3[nH]ncc23)[C@@H](c2ncc(NC3CN(CCCF)C3)cc2F)N1CC(F)(F)F [Example 30]", 9.55],
  ["C[C@@H]1Cc2c(ccc3[nH]nc(F)c23)[C@@H](c2ncc(NC3CN(CCCF)C3)cc2F)N1CC(F)(F)F [Example 33]", 10.00],
  ["C[C@@H]1Cc2c(ccc3[nH]ncc23)[C@@H](c2ccc(NC3CN(CCCF)C3)c(F)c2)N1CC(F)(F)F [Example 41]", 9.77],
  ["C[C@@H]1Cc2c(ccc3[nH]ncc23)[C@@H](c2ccc(NC3CN(CCCF)C3)cc2)N1CC(F)F [Example 48]", 10.11]
]}

For the molecule shown here, C[C@@H]1Cc2c(ccc3[nH]ncc23)[C@@H](c2cnc(NC3CN(CCCF)C3)cn2)N1CC(F)F [Example 50] , give the reported pIC50.
9.33

# iterate: COc1cc(N(C)C2CN(CCCF)C2)ccc1[C@@H]1c2ccc3[nH]ncc3c2C[C@@H](C)N1CC1(F)CC1 [Example 52]
9.68

# iterate: C[C@@H]1Cc2c(ccc3[nH]ncc23)[C@@H](c2ccc(NC3CN(CCCF)C3)c(F)n2)N1CC(F)F [Example 47]
9.39

* * *

// values below are reported solubility at 24 h
- Test Details: Thermodynamic solubility (shake-flask)
- Format: physicochemical
- Measurement Context: aqueous phosphate buffer, 25 °C, pH 7.4, aqueous buffer, thermodynamic from solid, aqueous phosphate buffer pH 7.4, 24 hours

Solved entries (count: 4):
{"columns": ["Molecule", "Observable", "Measured"],
 "data": [
  ["FCCCN1CC(Nc2ccc([C@@H]3c4ccc5[nH]ncc5c4C[C@@H](C(F)F)N3CC(F)F)nc2)C1 [Example 51]", "solubility at 24 h", "> 1000 µM"],
  ["CC(C)CN1[C@H](c2ccc(NC3CN(CCCF)C3)cn2)c2ccc3[nH]ncc3c2C[C@H]1C [Example 69]", "solubility at 24 h", "> 1000 µM"],
  ["C[C@@H]1Cc2c(ccc3[nH]ncc23)[C@@H](c2ncc(NC3CN(CCCF)C3)cc2F)N1CC(F)F [Example 46]", "solubility at 24 h", "> 1000 µM"],
  ["C[C@@H]1Cc2c(ccc3[nH]ncc23)[C@@H](c2ccc(NC3CN(CCCF)C3)c(F)n2)N1CC(F)F [Example 47]", "solubility at 24 h", "> 1000 µM"]
]}

Next item in the queue.
For the molecule shown here, C[C@@H]1Cc2c(ccc3[nH]ncc23)[C@@H](c2ccc(NC3CN(CCCF)C3)cn2)N1CC1(F)CC1 [Example 3] , give the reported solubility at 24 h.
> 941 µM
